target: EPH-A2 (Homo sapiens, UniProt P29317)
Sequence (P29317 24-976): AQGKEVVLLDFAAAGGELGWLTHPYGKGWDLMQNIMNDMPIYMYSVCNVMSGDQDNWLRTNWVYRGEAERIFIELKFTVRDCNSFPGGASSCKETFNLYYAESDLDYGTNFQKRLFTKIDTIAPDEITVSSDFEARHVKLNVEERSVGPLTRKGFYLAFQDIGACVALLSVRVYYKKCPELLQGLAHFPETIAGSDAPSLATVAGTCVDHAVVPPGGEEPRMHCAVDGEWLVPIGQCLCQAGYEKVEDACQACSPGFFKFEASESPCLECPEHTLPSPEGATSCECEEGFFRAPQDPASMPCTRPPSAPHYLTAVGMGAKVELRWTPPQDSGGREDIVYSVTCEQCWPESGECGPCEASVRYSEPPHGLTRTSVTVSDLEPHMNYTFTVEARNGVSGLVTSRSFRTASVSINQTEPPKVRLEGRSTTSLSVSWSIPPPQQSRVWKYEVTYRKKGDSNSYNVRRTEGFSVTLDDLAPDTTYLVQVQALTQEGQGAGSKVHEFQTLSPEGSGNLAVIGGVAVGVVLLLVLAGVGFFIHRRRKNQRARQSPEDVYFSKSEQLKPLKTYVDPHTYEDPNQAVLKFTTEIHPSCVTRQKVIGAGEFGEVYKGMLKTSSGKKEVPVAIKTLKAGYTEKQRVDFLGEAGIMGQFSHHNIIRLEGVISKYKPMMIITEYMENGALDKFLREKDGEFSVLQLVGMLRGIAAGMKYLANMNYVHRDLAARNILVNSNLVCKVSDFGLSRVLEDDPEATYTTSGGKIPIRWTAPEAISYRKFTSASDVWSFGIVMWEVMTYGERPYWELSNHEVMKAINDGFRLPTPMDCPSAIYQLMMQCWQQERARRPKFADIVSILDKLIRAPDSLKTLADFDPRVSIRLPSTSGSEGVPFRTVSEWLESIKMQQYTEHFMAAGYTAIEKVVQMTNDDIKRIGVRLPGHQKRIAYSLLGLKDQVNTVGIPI
assay-explanation: Kinase profiling (radiometric filter-binding)
Assay type: biochemical
test-context: EPH-A2, 1 µM inhibitor; read-out: Residual activity, %
Square brackets hold non-standard residues; d marks the D form. Peptide text beside a SMILES is read from it. * marks the point of attachment. X3 = O=C(CCCCCNCc1nc2c(sc3cc(Br)cnc32)c(=O)[nH]1)*
endpoint-label: remaining activity at 1 µM

compound	target	experimental-value
N=C(N)NCCC[C@@H](NC(=O)CNC(=O)[C@@H](CCCNC(=N)N)NC(=O)[C@@H](CCCNC(=N)N)NC(=O)CCCCCCCNCc1nc2c(sc3ccc(Br)cc32)c(=O)[nH]1)C(=O)N[C@H](CCCCN)C(N)=O	EPH-A2 (Homo sapiens, UniProt P29317)	113%
N=C(N)NCCC[C@@H](NC(=O)CCCCCNCc1nc2c(sc3cc(Br)cnc32)c(=O)[nH]1)C(=O)N[C@H](CCCNC(=N)N)C(=O)N[C@H](CCCNC(=N)N)C(=O)N[C@H](CCCNC(=N)N)C(=O)N[C@H](CCCNC(=N)N)C(=O)N[C@H](CCCNC(=N)N)C(=O)N[C@H](CCCCN)C(N)=O [ARC-3126, BPTP-Ahx-(D-Arg)6-D-Lys-NH2] (X3-[dR][dR][dR][dR][dR][dR][dK]-NH2)	EPH-A2 (Homo sapiens, UniProt P29317)	113%
N=C(N)NCCC[C@@H](NC(=O)CNC(=O)[C@@H](CCCNC(=N)N)NC(=O)[C@@H](CCCNC(=N)N)NC(=O)CCCCCCCNCc1nc2c(sc3cc(Br)cnc32)c(=O)[nH]1)C(=O)N[C@H](CCCCN)C(N)=O	EPH-A2 (Homo sapiens, UniProt P29317)	116%
N=C(N)NCCC[C@@H](NC(=O)CCCCCNC(=O)Cn1cnc2c(I)c(I)c(I)c(I)c21)C(=O)N[C@H](CCCNC(=N)N)C(=O)N[C@H](CCCNC(=N)N)C(=O)N[C@H](CCCNC(=N)N)C(=O)N[C@H](CCCNC(=N)N)C(=O)N[C@H](CCCNC(=N)N)C(=O)N[C@H](CCCCN)C(N)=O	EPH-A2 (Homo sapiens, UniProt P29317)	108%
N=C(N)NCCC[C@@H](NC(=O)CNC(=O)[C@@H](CCCNC(=N)N)NC(=O)[C@@H](CCCNC(=N)N)NC(=O)Cn1cc(CNCc2nc3c(sc4ccc(Br)cc43)c(=O)[nH]2)nn1)C(=O)N[C@H](CCCCN)C(N)=O	EPH-A2 (Homo sapiens, UniProt P29317)	132%
